# Assay: Pharmacokinetic parameters in rats
# Type: in vivo, SD rats
# Experimental parameters: male, Sprague-Dawley, rat, plasma, iv, 1 mg/kg, intravenous injection 1 mg/kg, individual rats #1-#3, read-out: Tmax

>  <Molecule>
Cc1ccc(NC(=O)c2cccc(C(F)(F)F)c2)cc1-n1cc(-c2cccnc2)cn1 [compound 1, reference compound]

>  <Scale unit>
min

>  <Tmax>
1.98

$$$$
>  <Molecule>
Cc1ccc(NC(=O)c2cccc(C(F)(F)F)c2)cc1-n1cc(-c2cncc(N3CCOCC3)c2)cn1 [Example 16]

>  <Scale unit>
min

>  <Tmax>
1.98

$$$$

###

# Assay: Pharmacokinetic parameters in rats
# Type: in vivo, SD rats
# Experimental parameters: male, Sprague-Dawley, rat, plasma, iv, 1 mg/kg, intravenous injection 1 mg/kg, average n=3, read-out: C0
Each entry below carries its recorded C0.

>  <Molecule>
Cc1ccc(NC(=O)c2cccc(C(F)(F)F)c2)cc1-n1cc(-c2cccnc2)cn1 [compound 1, reference compound]

>  <C0>
348 ng/mL

$$$$
>  <Molecule>
Cc1ccc(NC(=O)c2cccc(C(F)(F)F)c2)cc1-n1cc(-c2cncc(N3CCOCC3)c2)cn1

>  <C0>
1120 ng/mL

$$$$

###

# Assay: Pharmacokinetic parameters in rats
# Format: in vivo, SD rats
# Experimental parameters: male, Sprague-Dawley, rat, plasma, iv, 1 mg/kg, intravenous injection 1 mg/kg, average n=3, read-out: AUC0-t
# Method: In the example, SD rats (180-220 g, male) (purchased from Experimental Animal Center of Anhui Medical University, China) were used. The animals were kept in cages ventilated independently with 6 rats per cage. The feeding was performed at a temperature of 20˜26° C. and a humidity of 35-75%. The light condition was 12 hours of lighting/12 hours of darkness. The corncob bedding was refreshed once a week. The rats were fed with foods and drinking water on an ad libitum basis. […]

>  <Compound>
Cc1ccc(NC(=O)c2cccc(C(F)(F)F)c2)cc1-n1cc(-c2cccnc2)cn1 [compound 1, reference compound]

>  <AUC0-t, ng·h/mL>
91.6

$$$$
>  <Compound>
Cc1ccc(NC(=O)c2cccc(C(F)(F)F)c2)cc1-n1cc(-c2cncc(N3CCOCC3)c2)cn1

>  <AUC0-t, ng·h/mL>
742

$$$$

###

# Assay: Pharmacokinetic parameters in rats
# Format: in vivo, SD rats
# Experimental parameters: male, Sprague-Dawley, rat, plasma, iv, 1 mg/kg, intravenous injection 1 mg/kg, average n=3, read-out: Cmax

>  <Compound>
Cc1ccc(NC(=O)c2cccc(C(F)(F)F)c2)cc1-n1cc(-c2cccnc2)cn1 [compound 1, reference compound]

>  <Cmax>
0.262 µg/mL

$$$$
>  <Compound>
Cc1ccc(NC(=O)c2cccc(C(F)(F)F)c2)cc1-n1cc(-c2cncc(N3CCOCC3)c2)cn1 [Example 16]

>  <Cmax>
0.914 µg/mL

$$$$

###

# Assay: Pharmacokinetic parameters in rats
# Assay type: in vivo, SD rats
# Experimental parameters: male, Sprague-Dawley, rat, plasma, po, 10 mg/kg, oral administration (gavage) 10 mg/kg, average n=3, read-out: AUC0-t
Each entry below carries its recorded AUC0-t.
Property label: AUC0-t

>  <Compound>
Cc1ccc(NC(=O)c2cccc(C(F)(F)F)c2)cc1-n1cc(-c2cccnc2)cn1 [compound 1, reference compound]

>  <Meas value>
1010 ng·h/mL

$$$$
>  <Compound>
Cc1ccc(NC(=O)c2cccc(C(F)(F)F)c2)cc1-n1cc(-c2cncc(N3CCOCC3)c2)cn1 [Example 16]

>  <Meas value>
10900 ng·h/mL

$$$$

###

Each entry below carries its recorded MRT inf.
# Assay: Pharmacokinetic parameters in rats
# Format: in vivo, SD rats
# Experimental parameters: male, Sprague-Dawley, rat, plasma, iv, 1 mg/kg, intravenous injection 1 mg/kg, average n=3, read-out: MRT0-∞
Property label: MRT inf (h)

>  <Molecule>
Cc1ccc(NC(=O)c2cccc(C(F)(F)F)c2)cc1-n1cc(-c2cncc(N3CCOCC3)c2)cn1 [Example 16]

>  <Property label>
MRT inf

>  <Meas value>
2.33

$$$$
>  <Molecule>
Cc1ccc(NC(=O)c2cccc(C(F)(F)F)c2)cc1-n1cc(-c2cccnc2)cn1 [compound 1, reference compound]

>  <Property label>
MRT inf

>  <Meas value>
0.617

$$$$

###

# Assay: Pharmacokinetic parameters in rats
# Assay type: in vivo, SD rats
# Experimental parameters: male, SD, rat, plasma, po, 10 mg/kg, oral administration (gavage) 10 mg/kg, average n=3
Each entry below carries its recorded AUC(0-inf).
Property label: AUC(0-inf) (ng·h/mL)

>  <Compound>
Cc1ccc(NC(=O)c2cccc(C(F)(F)F)c2)cc1-n1cc(-c2cccnc2)cn1 [compound 1, reference compound]

>  <Scale unit>
ng·h/mL

>  <Meas value>
1020

$$$$
>  <Compound>
Cc1ccc(NC(=O)c2cccc(C(F)(F)F)c2)cc1-n1cc(-c2cncc(N3CCOCC3)c2)cn1

>  <Scale unit>
ng·h/mL

>  <Meas value>
11000

$$$$

###

# Assay: Pharmacokinetic parameters in rats
# Type: in vivo, SD rats
# Experimental parameters: male, Sprague-Dawley, rat, plasma, iv, 1 mg/kg, intravenous injection 1 mg/kg, average n=3, read-out: Vz
Each entry below carries its recorded Vd.
Property label: Vd

>  <Compound>
Cc1ccc(NC(=O)c2cccc(C(F)(F)F)c2)cc1-n1cc(-c2cncc(N3CCOCC3)c2)cn1

>  <Property label>
Vd

>  <Meas value>
5.66 L/kg

$$$$
>  <Compound>
Cc1ccc(NC(=O)c2cccc(C(F)(F)F)c2)cc1-n1cc(-c2cccnc2)cn1 [compound 1, reference compound]

>  <Property label>
Vd

>  <Meas value>
12 L/kg

$$$$

###

# Assay: Pharmacokinetic parameters in rats
# Assay type: in vivo, SD rats
# Experimental parameters: male, Sprague-Dawley, rat, plasma, po, 10 mg/kg, oral administration (gavage) 10 mg/kg, individual rats #1-#3, read-out: MRT0-∞
Each entry below carries its recorded MRT inf.

>  <Compound>
Cc1ccc(NC(=O)c2cccc(C(F)(F)F)c2)cc1-n1cc(-c2cccnc2)cn1 [compound 1, reference compound]

>  <MRT inf, h>
1.92

$$$$
>  <Compound>
Cc1ccc(NC(=O)c2cccc(C(F)(F)F)c2)cc1-n1cc(-c2cncc(N3CCOCC3)c2)cn1 [Example 16]

>  <MRT inf, h>
6.19

$$$$

###

Each entry below carries its recorded bioavailability.
# Assay: Pharmacokinetic parameters in rats
# Type: in vivo, SD rats
# Experimental parameters: male, Sprague-Dawley, rat, plasma, oral, 10 mg/kg, oral administration (gavage) 10 mg/kg vs intravenous 1 mg/kg, average n=3, read-out: F (oral bioavailability)
Property label: bioavailability (%)

>  <Compound>
Cc1ccc(NC(=O)c2cccc(C(F)(F)F)c2)cc1-n1cc(-c2cccnc2)cn1 [compound 1, reference compound]

>  <Meas value>
111

$$$$
>  <Compound>
Cc1ccc(NC(=O)c2cccc(C(F)(F)F)c2)cc1-n1cc(-c2cncc(N3CCOCC3)c2)cn1 [Example 16]

>  <Meas value>
144

$$$$

###

Each entry below carries its recorded C0.
# Assay: Pharmacokinetic parameters in rats
# Assay type: in vivo, SD rats
# Experimental parameters: male, Sprague-Dawley, rat, plasma, iv, 1 mg/kg, intravenous injection 1 mg/kg, individual rats #1-#3, read-out: C0

>  <Molecule>
Cc1ccc(NC(=O)c2cccc(C(F)(F)F)c2)cc1-n1cc(-c2cncc(N3CCOCC3)c2)cn1

>  <C0 (ng/mL)>
1310

$$$$
>  <Molecule>
Cc1ccc(NC(=O)c2cccc(C(F)(F)F)c2)cc1-n1cc(-c2cccnc2)cn1 [compound 1, reference compound]

>  <C0 (ng/mL)>
260

$$$$

###

Each entry below carries its recorded Cmax.
# Assay: Pharmacokinetic parameters in rats
# Assay type: in vivo, SD rats
# Experimental parameters: male, Sprague-Dawley, rat, plasma, po, 10 mg/kg, oral administration (gavage) 10 mg/kg, average n=3, read-out: Cmax

>  <Compound>
Cc1ccc(NC(=O)c2cccc(C(F)(F)F)c2)cc1-n1cc(-c2cncc(N3CCOCC3)c2)cn1 [Example 16]

>  <Cmax (ng/mL)>
1480

$$$$
>  <Compound>
Cc1ccc(NC(=O)c2cccc(C(F)(F)F)c2)cc1-n1cc(-c2cccnc2)cn1 [compound 1, reference compound]

>  <Cmax (ng/mL)>
576

$$$$

###

# Assay: Pharmacokinetic parameters in rats
# Format: in vivo, SD rats
# Experimental parameters: male, Sprague-Dawley, rat, plasma, iv, 1 mg/kg, intravenous injection 1 mg/kg, average n=3
Property label: AUC(0-inf) (ng·h/mL)

>  <Molecule>
Cc1ccc(NC(=O)c2cccc(C(F)(F)F)c2)cc1-n1cc(-c2cncc(N3CCOCC3)c2)cn1

>  <Scale unit>
ng·h/mL

>  <Meas value>
765

$$$$
>  <Molecule>
Cc1ccc(NC(=O)c2cccc(C(F)(F)F)c2)cc1-n1cc(-c2cccnc2)cn1 [compound 1, reference compound]

>  <Scale unit>
ng·h/mL

>  <Meas value>
92.5

$$$$
